Tested on: BMDM
Assay: Immunostimulatory activity in C57BL/6 mouse BMDM assessed as increase in IL-5 production at 20 ug/ml after 6 to 72 hrs by immunoassay
Type: functional, cell-based
Calls of active or inactive are those of the source. The rule behind the calls is not given here.

{"columns": ["molecule", "Activity"],
 "data": [
  ["CCCCCCCCCCCCCC(=O)O[C@H](CCCCCCCCCCC)CC(=O)O[C@@H]1[C@@H](NC(=O)C[C@@H](CCCCCCCCCCC)OC(=O)CCCCCCCCCCC)[C@H](OC[C@H]2OC(O)[C@H](NC(=O)C[C@H](O)CCCCCCCCCCC)[C@@H](OC(=O)C[C@H](O)CCCCCCCCCCC)[C@@H]2O)O[C@H](C(=O)NCCCCCSCCCO[C@H]2O[C@H](CO)[C@H](O)[C@H](O)[C@H]2NC(C)=O)[C@H]1OP(=O)(O)O (stereo partly drawn)", "inactive"],
  ["CCCCCCCCCCCCCC(=O)O[C@H](CCCCCCCCCCC)CC(=O)O[C@@H]1[C@@H](NC(=O)C[C@@H](CCCCCCCCCCC)OC(=O)CCCCCCCCCCC)[C@H](OC[C@H]2OC(O)[C@H](NC(=O)C[C@H](O)CCCCCCCCCCC)[C@@H](OC(=O)C[C@H](O)CCCCCCCCCCC)[C@@H]2O)O[C@H](C(=O)NCCCCCCN=[N+]=[N-])[C@H]1OP(=O)(O)O (stereo partly drawn)", "inactive"],
  ["C=CCCCNC(=O)[C@H]1O[C@@H](OC[C@H]2OC(O)[C@H](NC(=O)C[C@H](O)CCCCCCCCCCC)[C@@H](OC(=O)C[C@H](O)CCCCCCCCCCC)[C@@H]2O)[C@H](NC(=O)C[C@@H](CCCCCCCCCCC)OC(=O)CCCCCCCCCCC)[C@@H](OC(=O)C[C@@H](CCCCCCCCCCC)OC(=O)CCCCCCCCCCCCC)[C@@H]1OP(=O)(O)O (stereo partly drawn)", "inactive"]
]}

* * *

System: THP-1
Experiment: Cytotoxicity against human THP1 cells assessed as decrease in cell viability at 0.1 to 20 ug/ml after 6 to 48 hrs by SRB assay
Type: cell-based

{"columns": ["compound", "Activity"],
 "data": [
  ["CCCCCCCCCCCCCC(=O)O[C@H](CCCCCCCCCCC)CC(=O)O[C@@H]1[C@@H](NC(=O)C[C@@H](CCCCCCCCCCC)OC(=O)CCCCCCCCCCC)[C@H](OC[C@H]2OC(O)[C@H](NC(=O)C[C@H](O)CCCCCCCCCCC)[C@@H](OC(=O)C[C@H](O)CCCCCCCCCCC)[C@@H]2O)O[C@H](C(=O)NCCCCCSCCCO[C@H]2O[C@H](CO)[C@H](O)[C@H](O[C@@H]3O[C@H](CO)[C@H](O)[C@H](O)[C@H]3O)[C@H]2NC(C)=O)[C@H]1OP(=O)(O)O (stereo partly drawn)", "Non-Toxic"],
  ["CCCCCCCCCCCCCC(=O)O[C@H](CCCCCCCCCCC)CC(=O)O[C@@H]1[C@@H](NC(=O)C[C@@H](CCCCCCCCCCC)OC(=O)CCCCCCCCCCC)[C@H](OC[C@H]2OC(O)[C@H](NC(=O)C[C@H](O)CCCCCCCCCCC)[C@@H](OC(=O)C[C@H](O)CCCCCCCCCCC)[C@@H]2O)O[C@H](C(=O)NCCCCCSCCCO[C@H]2O[C@H](CO)[C@H](O)[C@H](O)[C@H]2NC(C)=O)[C@H]1OP(=O)(O)O (stereo partly drawn)", "Non-Toxic"],
  ["C#CCCCCNC(=O)[C@H]1O[C@@H](OC[C@H]2OC(O)[C@H](NC(=O)C[C@H](O)CCCCCCCCCCC)[C@@H](OC(=O)C[C@H](O)CCCCCCCCCCC)[C@@H]2O)[C@H](NC(=O)C[C@@H](CCCCCCCCCCC)OC(=O)CCCCCCCCCCC)[C@@H](OC(=O)C[C@@H](CCCCCCCCCCC)OC(=O)CCCCCCCCCCCCC)[C@@H]1OP(=O)(O)O (stereo partly drawn)", "Non-Toxic"]
]}

* * *

System: BMDM
Experiment: Immunostimulatory activity in C57BL/6 mouse BMDM assessed as increase in IL-5 production at 20 ug/ml after 6 to 72 hrs by immunoassay
Format: functional, cell-based
Calls of active or inactive are those of the source. The rule behind the calls is not given here.

{"columns": ["compound", "Activity"],
 "data": [
  ["C#CCCCCNC(=O)[C@H]1O[C@@H](OC[C@H]2OC(O)[C@H](NC(=O)C[C@H](O)CCCCCCCCCCC)[C@@H](OC(=O)C[C@H](O)CCCCCCCCCCC)[C@@H]2O)[C@H](NC(=O)C[C@@H](CCCCCCCCCCC)OC(=O)CCCCCCCCCCC)[C@@H](OC(=O)C[C@@H](CCCCCCCCCCC)OC(=O)CCCCCCCCCCCCC)[C@@H]1OP(=O)(O)O (stereo partly drawn)", "inactive"],
  ["CCCCCCCCCCCCCC(=O)O[C@H](CCCCCCCCCCC)CC(=O)O[C@@H]1[C@@H](NC(=O)C[C@@H](CCCCCCCCCCC)OC(=O)CCCCCCCCCCC)[C@H](OC[C@H]2OC(O)[C@H](NC(=O)C[C@H](O)CCCCCCCCCCC)[C@@H](OC(=O)C[C@H](O)CCCCCCCCCCC)[C@@H]2O)O[C@H](C(=O)NCCCCCSCCCO[C@H]2O[C@H](CO)[C@H](O)[C@H](O[C@@H]3O[C@H](CO)[C@H](O)[C@H](O)[C@H]3O)[C@H]2NC(C)=O)[C@H]1OP(=O)(O)O (stereo partly drawn)", "inactive"],
  ["CCCCCCCCCCCCCC(=O)O[C@H](CCCCCCCCCCC)CC(=O)O[C@@H]1[C@@H](NC(=O)C[C@@H](CCCCCCCCCCC)OC(=O)CCCCCCCCCCC)[C@H](OC[C@H]2OC(O)[C@H](NC(=O)C[C@H](O)CCCCCCCCCCC)[C@@H](OC(=O)C[C@H](O)CCCCCCCCCCC)[C@@H]2O)O[C@H](C(=O)O)[C@H]1OP(=O)(O)O (stereo partly drawn)", "inactive"]
]}

* * *

System: THP-1
Test: Cytotoxicity against human THP1 cells assessed as decrease in cell viability at 0.1 to 20 ug/ml after 6 to 48 hrs by SRB assay
Format: cell-based

{"columns": ["molecule", "Activity"],
 "data": [
  ["CCCCCCCCCCCCCC(=O)O[C@H](CCCCCCCCCCC)CC(=O)O[C@@H]1[C@@H](NC(=O)C[C@@H](CCCCCCCCCCC)OC(=O)CCCCCCCCCCC)[C@H](OC[C@H]2OC(O)[C@H](NC(=O)C[C@H](O)CCCCCCCCCCC)[C@@H](OC(=O)C[C@H](O)CCCCCCCCCCC)[C@@H]2O)O[C@H](C(=O)O)[C@H]1OP(=O)(O)O (stereo partly drawn)", "Non-Toxic"],
  ["CCCCCCCCCCCCCC(=O)O[C@H](CCCCCCCCCCC)CC(=O)O[C@@H]1[C@@H](NC(=O)C[C@@H](CCCCCCCCCCC)OC(=O)CCCCCCCCCCC)[C@H](OC[C@H]2OC(O)[C@H](NC(=O)C[C@H](O)CCCCCCCCCCC)[C@@H](OC(=O)C[C@H](O)CCCCCCCCCCC)[C@@H]2O)O[C@H](C(=O)NCCCCCCN=[N+]=[N-])[C@H]1OP(=O)(O)O (stereo partly drawn)", "Non-Toxic"],
  ["C=CCCCNC(=O)[C@H]1O[C@@H](OC[C@H]2OC(O)[C@H](NC(=O)C[C@H](O)CCCCCCCCCCC)[C@@H](OC(=O)C[C@H](O)CCCCCCCCCCC)[C@@H]2O)[C@H](NC(=O)C[C@@H](CCCCCCCCCCC)OC(=O)CCCCCCCCCCC)[C@@H](OC(=O)C[C@@H](CCCCCCCCCCC)OC(=O)CCCCCCCCCCCCC)[C@@H]1OP(=O)(O)O (stereo partly drawn)", "Non-Toxic"]
]}

* * *

Tested on: BMDM
Assay: Immunostimulatory activity in C57BL/6 mouse BMDM assessed as increase in TNFalpha production at 20 ug/ml after 6 to 72 hrs by ELISA
Format: functional, cell-based
Active and inactive are the calls of the source. The rule behind the calls is not given here.
quantity: Activity

{"columns": ["compound", "quantity", "measured_result"],
 "data": [
  ["CCCCCCCCCCCCCC(=O)O[C@H](CCCCCCCCCCC)CC(=O)O[C@@H]1[C@@H](NC(=O)C[C@@H](CCCCCCCCCCC)OC(=O)CCCCCCCCCCC)[C@H](OC[C@H]2OC(O)[C@H](NC(=O)C[C@H](O)CCCCCCCCCCC)[C@@H](OC(=O)C[C@H](O)CCCCCCCCCCC)[C@@H]2O)O[C@H](C(=O)O)[C@H]1OP(=O)(O)O (some centres undefined)", "Activity", "Active"],
  ["C#CCCCCNC(=O)[C@H]1O[C@@H](OC[C@H]2OC(O)[C@H](NC(=O)C[C@H](O)CCCCCCCCCCC)[C@@H](OC(=O)C[C@H](O)CCCCCCCCCCC)[C@@H]2O)[C@H](NC(=O)C[C@@H](CCCCCCCCCCC)OC(=O)CCCCCCCCCCC)[C@@H](OC(=O)C[C@@H](CCCCCCCCCCC)OC(=O)CCCCCCCCCCCCC)[C@@H]1OP(=O)(O)O (some centres undefined)", "Activity", "Active"],
  ["CCCCCCCCCCCCCC(=O)O[C@H](CCCCCCCCCCC)CC(=O)O[C@@H]1[C@@H](NC(=O)C[C@@H](CCCCCCCCCCC)OC(=O)CCCCCCCCCCC)[C@H](OC[C@H]2OC(O)[C@H](NC(=O)C[C@H](O)CCCCCCCCCCC)[C@@H](OC(=O)C[C@H](O)CCCCCCCCCCC)[C@@H]2O)O[C@H](C(=O)NCCCCCSCCCO[C@H]2O[C@H](CO)[C@H](O)[C@H](O)[C@H]2NC(C)=O)[C@H]1OP(=O)(O)O (some centres undefined)", "Activity", "Active"]
]}

Cited source for all entries: ChEMBL document CHEMBL4052816
